- Test system: A549
- assay_overview: Cytotoxicity against human A549 cells after 72 hrs by alamar blue assay
- Type: functional, cell-based
- condition_notes: A549, 72 h

>  <chem_smiles>
CC(C)[C@@H](C)[C@@]1(C)C[C@@H]1[C@@H](C)[C@H]1CC[C@H]2[C@@H]3[C@H](O)C=C4C[C@@H](O)CC[C@]4(C)[C@@]3(O)OC[C@]12C

>  <IC50>
> 40 µM

$$$$
>  <chem_smiles>
CC(C)[C@@H](C)C[C@H](O)[C@@H](C)[C@H]1CC[C@H]2[C@@H]3[C@@H](O)C=C4C[C@@H](O)CC[C@]4(C)[C@H]3CC[C@]12C

>  <IC50>
> 40 µM

$$$$
>  <chem_smiles>
CC(C)[C@@H](C)[C@@]1(C)C[C@@H]1[C@@H](C)[C@H]1CC[C@@H]([C@@]23C=C[C@]4(C[C@@H](O)CC[C@]4(C)C2=O)OO3)[C@]1(C)CCO

>  <IC50>
15.8 µM

$$$$
